Entries and their measured TGI follow.
- Test system: HS 578T breast
- Assay info: NCI tumour cell line growth inhibition, 48 h

// worked examples, TGI included
compound="COC(=O)[C@]1(c2cc3ccccc3[nH]2)CC2CN(CC(=O)N(C)OC)C1C1OC(C)(C)OC21 (some centres not stated)" measurement_type=TGI reported_value="> 100 µM"
compound="CC(O[Si](C)(C)C(C)(C)C)[C@H](NC(=O)OCC(Cl)(Cl)Cl)C(=O)O (some centres not stated)" measurement_type=TGI reported_value="> 100 µM"
compound=O=C(Oc1ccc([N+](=O)[O-])cc1)N1CCC(C(O)(c2ccc3c(c2)OCO3)c2ccc3c(c2)OCO3)CC1 measurement_type=TGI reported_value="> 100 µM"
compound=O=C(c1nsc(Cl)c1Cl)N1CCCCC1 measurement_type=TGI reported_value="> 100 µM"
compound=Cc1c(-c2ccccc2)n(C)c2cn[nH]c(=O)c12 measurement_type=TGI reported_value="> 100 µM"
compound=CCOC(=O)C(=Cc1ccc(Br)cc1)C(=O)OCC measurement_type=TGI reported_value="> 19.6 µM"
compound=CC(=O)OCCn1c(Cc2ccc([N+](=O)[O-])cc2)nn(C(C)=O)c1=O measurement_type=TGI reported_value="> 100 µM"
compound=CC(C)(C)SC1=CCC[C@@H](P(=O)(c2ccccc2)c2ccccc2)[C@@H]2CCC[C@@H]12 measurement_type=TGI reported_value="47.6 µM"

IN: Can you look up the measured TGI of C=CC(=O)Nc1cc2c(Nc3ccc(OCc4ccccn4)c(Cl)c3)ncnc2cc1OCCN1CCOCC1 for me?
OUT: > 100 µM

IN: Sample Nc1ccc(-c2ccc(-c3nc4ccccc4[nH]3)cc2)cc1 — what was its TGI?
OUT: > 100 µM

IN: Returns the measured TGI for the input compound. Input: COc1cc2cc(C(=O)N3CC(COS(C)(=O)=O)c4c3cc([N+](=O)[O-])c3ccccc43)[nH]c2c(OC)c1OC (configuration not stated)
OUT: > 31.6 µM

IN: What does the record list as TGI for Cn1ncc2c(NCCc3ccccc3)nc(Cl)nc21 ?
OUT: > 100 µM

IN: Find the recorded TGI belonging to CSC(=S)NN=C1CCCCC1 and report it.
OUT: > 100 µM

IN: Which TGI value is on record for O=c1cccc(C#CCCCCOC2CCCO2)o1 (configuration not stated) ?
OUT: 29.2 µM

IN: Please report the recorded TGI for C[C@]12CC[C@H]3[C@@H](C[C@@H]4SC(Nc5cccc(F)c5)=N[C@@]45CC(=O)CC[C@]35C)[C@@H]1CCC2=O .
OUT: > 100 µM

IN: What does the data say about its TGI? Entry: COc1cc2c(cc1OC)-c1cc3ccccc3c(=O)n1CCC2
OUT: > 100 µM

IN: Look up TGI: O=[N+]([O-])c1ccc(N(CCO)CCO)c2c1no[n+]2[O-]
OUT: 4.29 µM

IN: Look up TGI for this compound: NC(=O)c1c(OCc2c(F)cc(Br)cc2F)nsc1NC(=O)NCCCCN1CCCC1
OUT: 0.971 µM

IN: Please look up its TGI: c1ccc(C2CC(N3CCOCC3)=Nc3ccccc3N2)cc1 (configuration not stated)
OUT: > 100 µM

IN: Would you mind telling me what TGI value was observed for c1ccc(-c2cc(-c3cc(-c4ccccn4)[nH]n3)n[nH]2)nc1 ?
OUT: > 100 µM

IN: Can you look up the measured TGI of C=CCSc1n[nH]c(-c2cccs2)n1 for me?
OUT: > 100 µM

IN: What value of TGI has been recorded for this entry: CCCCNc1nc(SC)nc2nc[nH]c12
OUT: 21.9 µM

Numbers sourced from PubChem BioAssay (NCI).
